B1: RAB40B (parent)
chain: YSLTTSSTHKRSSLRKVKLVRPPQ

Variants of: B1
Assay: protein stability index of a GFP-peptide fusion (GPS, HEK-293T) (PSI 1-6); higher = more stable;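 further: lentivirally expressed fusions sorted by FACS into six bins by GFP to DsRed ratio, PSI derived from sequencing read proportions per bin multiplied by bin number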
Conditions: c terminus: a fixed tail appended
Reported protein stability index is given for each of the following variants.
// no unit, no text: just the number

residue-codes	protein stability index
YSCTTSSTHKRSSLRKVKLVRPPQ [L3C]	3
YSLTTSSTHKRSSLRKVQLVRPPQ [K18Q]	3.09
YSLTTSSTHKRSSLKKVKLVRPPQ [R15K]	3.24

Give reported protein stability index value for YSLTTSSTHKRISLRKVKLVRPPQ [S12I]
2.36

Tell me its protein stability index given YSLTFSSTHKRSSLRKVKLVRPPQ [T5F] as the entry.
2.05

Provide measured protein stability index value, entry: YSLTTVSTHKRSSLRKVKLVRPPQ [S6V]
2.83

Tell me its protein stability index given YSLTTSSTHKRSSLRKVKLVRCPQ [P22C] as the entry.
3.61

Look up protein stability index of YSLTTSSTHKRSSLRKVKLLRPPQ [V20L] and report it.
2.71

Return value of protein stability index for input YSLTTSSTHERSSLRKVKLVRPPQ [K10E] , no commentary.
3.67

Source of measurements: the supplement of paper PMC10567573
